Each record here notes measured melting point.
Measured Parameter: melting point

molecule=COC(=O)c1c(N(Cc2ccccc2C)C(C)=O)sc2cc(O)ccc12 measured_parameter="melting point" reported_result="164 to 168 °C"
molecule=COC(=O)c1c(N(Cc2ccc(F)cc2)C(C)=O)sc2c(CN(C)C)c(O)ccc12 measured_parameter="melting point" reported_result="145 to 149 °C"
molecule=CCOC(=O)c1c(N(Cc2ccc(C)cc2)C(C)=O)sc2cc(O)ccc12 measured_parameter="melting point" reported_result="145 to 147 °C"
molecule=COC(=O)c1c(N(Cc2cccc(F)c2)C(C)=O)sc2c(CN(C)C)c(O)ccc12 measured_parameter="melting point" reported_result="142 to 144 °C"
molecule=CC(=O)N(Cc1ccccc1F)c1sc2c(Cl)c(O)ccc2c1C(=O)O measured_parameter="melting point" reported_result="230 to 234 °C"
molecule=CNC(=O)c1c(N(Cc2ccccc2F)C(C)=O)sc2c(CN(C)C)c(O)ccc12 measured_parameter="melting point" reported_result="122 to 126 °C"
molecule=CC(=O)N(Cc1ccccc1)c1sc2c(Cl)c(O)ccc2c1C(=O)OC(C)C measured_parameter="melting point" reported_result="164 to 168 °C"
molecule=COC(=O)c1c(N(CCc2ccccc2F)C(C)=O)sc2c(CN(C)C)c(O)ccc12 measured_parameter="melting point" reported_result="114 to 120 °C"
molecule="COC(=O)c1c(N(C(C)=O)C(C)c2ccccc2)sc2c(Cl)c(O)ccc12 (stereo not drawn)" measured_parameter="melting point" reported_result="195 to 200 °C"

====

Assay Method Text: Cytotoxicity, microtetrazolium test (MTT)
Settings: dog, MDCK cells, CC50 (MDCK), mean ±SD
Entries annotated with measured CC50 at 48 h
Measured Parameter: CC50 at 48 h (µg/mL)

compound="CNC(=O)c1c(N(Cc2ccccc2)C(C)=O)sc2c(Cl)c(O)ccc12 [Example 72]" measured_parameter="CC50 at 48 h" units_symbol=µg/mL censor_symbol== reported_result=160
compound="COC(=O)c1c(N(Cc2cccc3ccccc23)C(C)=O)sc2cc(O)ccc12 [Example 32]" measured_parameter="CC50 at 48 h" units_symbol=µg/mL censor_symbol=> reported_result=300
compound="COC(=O)c1c(N(Cc2ccc3ccccc3c2)C(C)=O)sc2c(Cl)c(O)ccc12 [Example 33]" measured_parameter="CC50 at 48 h" units_symbol=µg/mL censor_symbol== reported_result=3.7
compound="CCOC(=O)c1c(CSc2ccccc2)n(C)c2cc(Br)c(O)c(CN(C)C)c12 [Umifenovir, reference compound]" measured_parameter="CC50 at 48 h" units_symbol=µg/mL censor_symbol== reported_result=16
compound="COC(=O)c1c(N(Cc2ccccc2Cl)C(C)=O)sc2cc(O)ccc12 [Example 16]" measured_parameter="CC50 at 48 h" units_symbol=µg/mL censor_symbol== reported_result=21
compound="COC(=O)c1c(N(Cc2ccc(C(F)(F)F)cc2)C(C)=O)sc2cc(O)ccc12 [Example 22]" measured_parameter="CC50 at 48 h" units_symbol=µg/mL censor_symbol== reported_result=3.2
compound="COC(=O)c1c(N(Cc2ccc(F)cc2)C(C)=O)sc2c(Cl)c(O)ccc12 [Example 27]" measured_parameter="CC50 at 48 h" units_symbol=µg/mL censor_symbol== reported_result=39.8
compound="CNC(=O)c1c(N(Cc2ccc(F)cc2F)C(C)=O)sc2c(Cl)c(O)ccc12 [Example 78]" measured_parameter="CC50 at 48 h" units_symbol=µg/mL censor_symbol== reported_result=68

====

Assay Method Text: Cytotoxicity, microtetrazolium test (MTT)
Settings: dog, MDCK cells, CC50 (MDCK), mean ±SD
Where a name gives a salt, the structure may show the parent alone.
Measured Parameter: CC50 at 48 h

compound="COC(=O)c1c(N(Cc2ccc(F)cc2)C(C)=O)sc2c(CN(C)C)c(O)ccc12 [Example 62, hydrochloride]" reported_result="92 µg/mL"
compound="COC(=O)c1c(N(Cc2ccccc2F)C(C)=O)sc2c(Cl)c(O)ccc12 [Example 23]" reported_result="> 300 µg/mL"
compound="CC(=O)N(Cc1ccccc1Cl)c1sc2c(Cl)c(O)ccc2c1C(=O)O [Example 68]" reported_result="65 µg/mL"
compound="CCOC(=O)c1c(N(Cc2ccccc2)C(C)=O)sc2c(Cl)c(O)ccc12 [Example 1]" reported_result="> 300 µg/mL"
compound="COC(=O)c1c(N(Cc2ccccc2F)C(C)=O)sc2cc(O)ccc12 [Example 24]" reported_result="> 300 µg/mL"
compound="COC(=O)c1c(N(Cc2ccc(F)cc2F)C(C)=O)sc2c(Cl)c(O)ccc12 [Example 29]" reported_result="> 300 µg/mL"
compound="CNC(=O)c1c(N(Cc2ccccc2F)C(C)=O)sc2c(CN(C)C)c(O)ccc12 [Example 84]" reported_result="> 300 µg/mL"
compound="CNC(=O)c1c(N(Cc2ccccc2)C(C)=O)sc2cc(O)ccc12 [Example 73]" reported_result="> 300 µg/mL"
compound="COC(=O)c1c(N(Cc2ccccc2C)C(C)=O)sc2c(CN(C)C)c(O)ccc12 [Example 58]" reported_result="> 300 µg/mL"

====

Assay Method Text: Acute oral toxicity, fixed dose method (OECD 420)
Settings: female BALB/c mice, intragastric, 2000 mg/kg
Counter-ions that a name gives are not always drawn.
Measured Parameter: Survived

molecule=COC(=O)c1c(N(Cc2ccccc2F)C(C)=O)sc2c(CN(C)C)c(O)ccc12 reported_result=4
molecule=CNC(=O)c1c(N(Cc2ccccc2)C(C)=O)sc2c(Cl)c(O)ccc12 reported_result=4
molecule=CNC(=O)c1c(N(Cc2ccccc2)C(C)=O)sc2cc(O)ccc12 reported_result=4
molecule=COC(=O)c1c(N(Cc2ccccc2F)C(C)=O)sc2c(Cl)c(O)ccc12 reported_result=4
molecule="COC(=O)c1c(N(Cc2ccccc2)C(C)=O)sc2c(CN(C)C)c(O)ccc12 [Example 61, hydrochloride]" reported_result=1

====

Measured Parameter: melting point

compound=CC(=O)N(Cc1ccccc1)c1sc2cc(O)ccc2c1C(=O)OC(C)(C)C measured_parameter="melting point" reported_result="185 to 190 °C"
compound="CNC(=O)c1c(N(Cc2ccccc2Cl)C(C)=O)sc2c(Cl)c(O)ccc12 [Example 74]" measured_parameter="melting point" reported_result="200 to 202 °C"
compound="CCOC(=O)c1c(N(Cc2ccccc2Cl)C(C)=O)sc2c(Cl)c(O)ccc12 [Example 9]" measured_parameter="melting point" reported_result="174 to 178 °C"
compound=CC(=O)N(Cc1ccc(F)cc1)c1sc2c(Cl)c(O)ccc2c1C(=O)O measured_parameter="melting point" reported_result="220 to 224 °C"
compound="COC(=O)c1c(N(Cc2cccc(F)c2)C(C)=O)sc2c(Cl)c(O)ccc12 [Example 25]" measured_parameter="melting point" reported_result="152 to 155 °C"

====

Assay Method Text: Acute oral toxicity, fixed dose method (OECD 420)
Settings: female BALB/c mice, intragastric, 2000 mg/kg
Where a name gives a salt, the structure may show the parent alone.
compounds and their reported Died
Measured Parameter: Died

compound="COC(=O)c1c(N(Cc2ccccc2F)C(C)=O)sc2c(Cl)c(O)ccc12 [Example 23]" reported_result=0
compound="COC(=O)c1c(N(Cc2ccccc2)C(C)=O)sc2c(CN(C)C)c(O)ccc12 [Example 61, hydrochloride]" reported_result=1
compound="CNC(=O)c1c(N(Cc2ccccc2)C(C)=O)sc2cc(O)ccc12 [Example 73]" reported_result=0
compound="CNC(=O)c1c(N(Cc2ccccc2)C(C)=O)sc2c(Cl)c(O)ccc12 [Example 72]" reported_result=0
compound="COC(=O)c1c(N(Cc2ccccc2F)C(C)=O)sc2c(CN(C)C)c(O)ccc12 [Example 52]" reported_result=0

====

Assay Method Text: Acute oral toxicity, fixed dose method (OECD 420)
Settings: acute oral toxicity in mice, UN GHS classification
Counter-ions that a name gives are not always drawn.
Measured Parameter: GHS hazard class

compound=COC(=O)c1c(N(Cc2ccccc2F)C(C)=O)sc2c(CN(C)C)c(O)ccc12 reported_result=5
compound=COC(=O)c1c(N(Cc2ccccc2F)C(C)=O)sc2c(Cl)c(O)ccc12 reported_result=5
compound="COC(=O)c1c(N(Cc2ccccc2)C(C)=O)sc2c(CN(C)C)c(O)ccc12 [Example 61, hydrochloride]" reported_result=4
compound=CNC(=O)c1c(N(Cc2ccccc2)C(C)=O)sc2c(Cl)c(O)ccc12 reported_result=5
compound=CNC(=O)c1c(N(Cc2ccccc2)C(C)=O)sc2cc(O)ccc12 reported_result=5

====

Assay Method Text: Cytotoxicity, microtetrazolium test (MTT)
Settings: dog, MDCK cells, CC50 (MDCK), mean ±SD
Measured Parameter: CC50 at 48 h

compound=COC(=O)c1c(N(Cc2ccccc2C#N)C(C)=O)sc2c(CN(C)C)c(O)ccc12 reported_result="> 300 µg/mL"
compound=CCOC(=O)c1c(N(Cc2ccccc2)C(C)=O)sc2cc(O)ccc12 reported_result="11.7 µg/mL"
compound="COC(=O)c1c(N(C(C)=O)C(C)c2ccccc2)sc2c(Cl)c(O)ccc12 (stereo not shown)" reported_result="24.5 µg/mL"
compound=COC(=O)c1c(N(Cc2cccc(F)c2)C(C)=O)sc2c(CN(C)C)c(O)ccc12 reported_result="> 300 µg/mL"

Data origin: patent US20240174629A1
